# target_desc: T1, Biotin-huCGRPaSA (human, not fully specified; biotin (position not given))
# T1 construct: exact construct ('aSA') not explained; also called Biotin CGRPaSA; full-length (1-37) CGRP
# T1 peptide: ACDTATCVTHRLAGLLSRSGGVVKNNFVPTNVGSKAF
# test_method_notes: ELISA, supernatant; relative to chimeric C245
Field 'label' (enum: 1 (yes) / 0 (no)). Set to 1 (yes) when Relative binding activity, % is strictly under 80%; else 0 (no).

Some solved cases for reference:
- hu161 (antibody, V domains shown, 3E5 HC-2/1F5 LC1-1) VH: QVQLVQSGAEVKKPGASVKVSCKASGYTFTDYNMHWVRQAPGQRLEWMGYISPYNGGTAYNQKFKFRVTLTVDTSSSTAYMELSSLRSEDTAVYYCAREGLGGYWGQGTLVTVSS VL: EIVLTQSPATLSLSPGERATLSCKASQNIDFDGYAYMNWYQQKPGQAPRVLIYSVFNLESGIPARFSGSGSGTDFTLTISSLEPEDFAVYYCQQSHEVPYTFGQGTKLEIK: 0 (no)
- hu230 (antibody, V domains shown, 3C1 HC-3/3C1 LC-1) VH: QVQLVQSGSELKKPGASVKVSCKASGYTFTGYTMNWVRQAPGQGLEWMGLINPYIGNTHYNQKFKDRFVFSVDRSSSTAYLQISSLKAEDTAVYYCARELDSGFDYWGQGTLVTVSS VL: DVVMTQSPLSLPVTLGQPASISCRSSQNIVHSNGDTYLEWYQQRPGQSPRLLIYKVSNRFSGVPDRFSGSGSGTDFTLKISRVEAEDVGVYYCYQGSHVPWTFGQGTKLEIK: 1 (yes)
- hu227 (antibody, V domains shown, 3C1 HC-2/3C1 LC-2) VH: QVQLVQSGAEVKKPGASVKVSCKASGYTFTGYTMNWVRQAPGQRLEWMGLINPYIGNTHYNQKFKDRVTFTVDRSSSTAYMELSSLRSEDTAVYYCARELDSGFDYWGQGTLVTVSS VL: DVVMTQTPLSLSVTPGQPASISCRSSQNIVHSNGDTYLEWYLQKPGQSPQLLIYKVSNRFSGVPDRFSGSGSGTDFTLKISRVEAEDVGVYYCYQGSHVPWTFGQGTKLEIK: 1 (yes)
- hu51 (antibody, V domains shown, 1F5 HC-2/3H10 LC2-1) VH: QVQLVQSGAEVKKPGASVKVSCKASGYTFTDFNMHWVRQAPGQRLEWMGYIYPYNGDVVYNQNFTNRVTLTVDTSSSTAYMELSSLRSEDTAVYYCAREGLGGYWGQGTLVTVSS VL: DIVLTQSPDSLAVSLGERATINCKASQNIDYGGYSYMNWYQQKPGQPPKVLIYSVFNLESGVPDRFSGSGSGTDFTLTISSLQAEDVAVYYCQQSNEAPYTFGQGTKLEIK: 0 (no)
- hu169 (antibody, V domains shown, 3E5 HC-2/3H10 LC2-2) VH: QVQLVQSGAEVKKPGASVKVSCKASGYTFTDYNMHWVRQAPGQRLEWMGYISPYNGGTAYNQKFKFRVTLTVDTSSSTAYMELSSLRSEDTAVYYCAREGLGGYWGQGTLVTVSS VL: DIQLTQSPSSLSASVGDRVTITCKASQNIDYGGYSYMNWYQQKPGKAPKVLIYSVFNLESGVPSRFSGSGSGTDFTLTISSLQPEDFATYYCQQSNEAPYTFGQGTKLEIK: 1 (yes)

Ask: Does hu2 (antibody, V domains shown, 1B2 HC-1/1A2 LC2-2) VH: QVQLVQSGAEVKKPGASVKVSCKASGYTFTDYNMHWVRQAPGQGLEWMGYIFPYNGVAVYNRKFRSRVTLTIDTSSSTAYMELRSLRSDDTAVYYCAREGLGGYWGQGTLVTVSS VL: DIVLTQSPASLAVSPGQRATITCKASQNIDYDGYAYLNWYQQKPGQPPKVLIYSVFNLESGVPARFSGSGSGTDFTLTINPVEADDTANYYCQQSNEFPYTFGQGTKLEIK have Relative binding activity, % strictly under 80%?
Reply: 1 (yes)

Ask: Quick check: Relative binding activity, % of hu212 (antibody, V domains shown, 3H10 HC-2/1A2 LC2-4) VH: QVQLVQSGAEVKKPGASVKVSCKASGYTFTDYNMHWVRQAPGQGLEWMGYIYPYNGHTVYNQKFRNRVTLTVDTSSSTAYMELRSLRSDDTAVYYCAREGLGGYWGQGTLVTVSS VL: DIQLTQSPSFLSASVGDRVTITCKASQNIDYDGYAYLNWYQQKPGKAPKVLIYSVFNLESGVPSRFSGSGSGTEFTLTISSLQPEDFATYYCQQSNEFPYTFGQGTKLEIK under 80%?
Reply: 1 (yes)

Ask: Record hu124 (antibody, V domains shown, 2B8 HC1-2/1F5 LC1-3) VH: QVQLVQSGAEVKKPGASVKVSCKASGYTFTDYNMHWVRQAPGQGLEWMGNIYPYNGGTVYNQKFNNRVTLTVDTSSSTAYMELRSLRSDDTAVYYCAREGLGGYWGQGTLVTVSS VL: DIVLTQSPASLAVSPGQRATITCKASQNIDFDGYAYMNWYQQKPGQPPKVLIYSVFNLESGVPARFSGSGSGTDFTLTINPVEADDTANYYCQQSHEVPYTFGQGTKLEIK : is its Relative binding activity, % strictly below 80%?
Reply: 0 (no)

Ask: Relative binding activity, % under 80%? Item: hu37 (antibody, V domains shown, 1F5 HC-1/3E5 LC-1) VH: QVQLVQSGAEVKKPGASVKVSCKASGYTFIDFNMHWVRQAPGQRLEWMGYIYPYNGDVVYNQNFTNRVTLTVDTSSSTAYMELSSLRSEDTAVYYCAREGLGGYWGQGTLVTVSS VL: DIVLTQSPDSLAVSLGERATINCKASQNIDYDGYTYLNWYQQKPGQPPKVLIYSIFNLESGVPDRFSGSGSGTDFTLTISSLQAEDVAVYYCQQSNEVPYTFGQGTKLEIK
Reply: 0 (no)

Ask: Say whether its Relative binding activity, % is strictly beneath 80%. Entry: hu53 (antibody, V domains shown, 1F5 HC-3/1A2 LC2-1) VH: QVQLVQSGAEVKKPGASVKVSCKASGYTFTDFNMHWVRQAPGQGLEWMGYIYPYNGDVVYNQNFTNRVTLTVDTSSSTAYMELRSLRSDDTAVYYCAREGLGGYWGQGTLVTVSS VL: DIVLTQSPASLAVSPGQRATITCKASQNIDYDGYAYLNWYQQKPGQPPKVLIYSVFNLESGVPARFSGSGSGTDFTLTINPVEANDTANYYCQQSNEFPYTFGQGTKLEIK
Reply: 1 (yes)

The measured values listed here are drawn from patent US20260125454A1.
